# experimentDescription: Antiproliferative activity against human LS 174T cells by cell viability analyzer
# Format: functional, cell-based
# measurementSetup: LS174T
Simple rule here: IC50 less than 0.05 µM is met, otherwise not met.

>>> categorylabel("CNc1ccc(/C=C/c2c(F)cccc2F)cc1")
"met"
>>> categorylabel("CNc1ncc(/C=C/c2c(Cl)cccc2Cl)cn1")
"not met"
>>> categorylabel("CN(C)c1ncc(/C=C/c2c(F)cccc2Cl)cn1")
"not met"
>>> categorylabel("CCNc1ccc(/C=C/c2c(F)cccc2F)cn1")
"met"
>>> categorylabel("CCNc1ncc(/C=C/c2c(F)cccc2F)cn1")
"not met"
>>> categorylabel("CN(C)c1ncc(/C=C/c2c(F)cccc2F)cn1")
"not met"
>>> categorylabel("CCNc1ccc(/C=C/c2c(F)cccc2F)cc1")
"not met"
>>> categorylabel("CN(C)c1ccc(/C=C/c2c(Cl)cccc2Cl)nc1")
"not met"
>>> categorylabel("CN(C)c1ccc(/C=C/c2c(F)cccc2Cl)cn1")
"met"
>>> categorylabel("CN(C)c1ccc(/C=C/c2c(F)cccc2F)cn1")
"met"
>>> categorylabel("CN(C)c1ccc(/C=C/c2c(F)cccc2F)nc1")
"not met"
>>> categorylabel("CN(C)c1ccc(/C=C/c2c(F)cccc2Cl)nc1")
"met"

These entries and their values trace back to ChEMBL document CHEMBL3352175.
